# Assay System: ZFP SBS#1289 (synthetic)
# Sequence (chain, as listed by the source): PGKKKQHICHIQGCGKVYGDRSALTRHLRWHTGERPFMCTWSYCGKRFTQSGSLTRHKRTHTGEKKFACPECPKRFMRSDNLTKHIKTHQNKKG
# Assay Comment: EMSA
# Condition Parameters: tags: MBP fusion
Recorded Endpoint: pKd
Scale: negative log10 of molar concentration, which is what pKd denotes.

So what's the measured pKd for this one? TAGGCAGTC (dsDNA) DNA 1: TAGGCAGTC DNA 2: GACTGCCTA
8.86

Values were extracted from patent US20030068675.
